Target: T1, human TGFβ2 (human, UniProt P61812 303-414)
T1 construct: also called TGFβ2 homodimer
T1 sequence: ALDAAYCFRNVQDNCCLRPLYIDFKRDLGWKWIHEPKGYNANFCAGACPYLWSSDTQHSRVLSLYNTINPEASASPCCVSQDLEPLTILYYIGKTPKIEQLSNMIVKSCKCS
Experiment: Biacore off-rate vs wt GC1008, 50 nM
measurementLabel: kd var/kd wt
When you answer, write just the number.

Consider the worked cases shown below.
S30T (antibody, V domains shown, GC1008 IgG4 variant) VH: QVQLVQSGAEVKKPGSSVKVSCKASGYTFTSNVISWVRQAPGQGLEWMGGVIPIVDIANYAQRFKGRVTITADESTSTTYMELSSLRSEDTAVYYCASTLGLVLDAMDYWGQGTLVTVSS VL: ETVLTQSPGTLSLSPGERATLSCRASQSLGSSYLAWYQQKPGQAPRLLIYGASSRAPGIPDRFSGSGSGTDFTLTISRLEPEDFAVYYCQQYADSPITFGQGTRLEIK ... 1.2
S30K (antibody, V domains shown, GC1008 IgG4 variant) VH: QVQLVQSGAEVKKPGSSVKVSCKASGYTFKSNVISWVRQAPGQGLEWMGGVIPIVDIANYAQRFKGRVTITADESTSTTYMELSSLRSEDTAVYYCASTLGLVLDAMDYWGQGTLVTVSS VL: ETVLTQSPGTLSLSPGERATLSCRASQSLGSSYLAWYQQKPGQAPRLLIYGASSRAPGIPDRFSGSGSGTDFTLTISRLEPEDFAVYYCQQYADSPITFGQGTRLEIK ... 1.5

With those in mind, consider the next binder.
The binder V55A (antibody, V domains shown, GC1008 IgG4 variant) VH: QVQLVQSGAEVKKPGSSVKVSCKASGYTFSSNVISWVRQAPGQGLEWMGGVIPIADIANYAQRFKGRVTITADESTSTTYMELSSLRSEDTAVYYCASTLGLVLDAMDYWGQGTLVTVSS VL: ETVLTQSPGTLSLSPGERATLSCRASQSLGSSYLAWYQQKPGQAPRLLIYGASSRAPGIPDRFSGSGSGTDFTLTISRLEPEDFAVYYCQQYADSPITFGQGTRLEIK showed kd var/kd wt equal to 1.7
